The reader will find reported IC50 values listed item by item below.
# System: UniProtKB Q9UM07
# Assay info: PAD4 RapidFire Mass Spectrometry (RFMS) activity assay, hPAD4
# Type: biochemical
# Conditions: pIC50=−log(IC50); read-out: hPAD4 RFMS pIC50 (converted)

# annotated cases, reported IC50 shown
C=CC(=O)O[C@@H]1CNC[C@@H]1NC(=O)c1ccc2c(c1)nc(-c1cc3cccnc3n1CC1CC1)n2C (racemic): 10 to 100 µM
C/C=C/C(=O)N[C@@H]1CNC[C@H]1NC(=O)c1ccc2c(c1)nc(-c1cc3cccnc3n1CC1CC1)n2C: 100 to 100000 µM

Please find the next compound below.
Problem: Specify IC50 for CN(C)C/C=C/C(=O)N[C@@H]1C[C@H](N)CN(C(=O)c2ccc3c(c2)nc(-c2cc4cccnc4n2CC2CC2)n3C)C1 (racemic) and stop.
Solution: 10 to 100 µM

* * *

# System: UniProt Q9UM07
# Assay info: PAD4 RapidFire Mass Spectrometry (RFMS) activity assay, hPAD4
# Type: biochemical
# Conditions: pIC50=−log(IC50); read-out: hPAD4 RFMS pIC50 (converted)
Value kind: IC50

Problem: Specify IC50 for C=CC(=O)N(C)[C@H]1C[C@@H]2CN(C(=O)c3cc(OC)c4c(c3)nc(-c3cc5cccnc5n3CC3CC3)n4C)[C@H]1[C@@H]2N (single isomer, unassigned) and stop.
Solution: 100 to 100000 µM

Problem: Specify IC50 for C=CC(=O)N(C)[C@@H]1C[C@@H]2CN(C(=O)c3cc(OC)c4c(c3)nc(-c3cc5cccnc5n3CC3CC3)n4C)[C@H]1[C@@H]2N (single isomer, unassigned) and stop.
Solution: 100 to 100000 µM

Problem: Specify IC50 for `CN(C)C/C=C/C(=O)N[C@@H]1CCCN(C(=O)c2ccc3c(c2)nc(-c2cc4cccnc4n2CC2CC2)n3C)C1` and stop.
Solution: 10 to 100 µM

Problem: Specify IC50 for `C=CC(=O)N[C@@H]1CCCN(C(=O)c2ccc3c(c2)nc(-c2cc4cccnc4n2CC2CC2)n3C)C1` and stop.
Solution: 100 to 100000 µM

Problem: Specify IC50 for `CN(C)C/C=C/C(=O)NCCN(CCc1cnc[nH]1)C(=O)c1ccc2c(c1)nc(-c1cc3cccnc3n1CC1CC1)n2C` and stop.
Solution: 100 to 100000 µM

Problem: Specify IC50 for CN(C)C/C=C/C(=O)N[C@H]1CCN(C(=O)c2ccc3c(c2)nc(-c2cc4cccnc4n2CC2CC2)n3C)C[C@H]1N (racemic) and stop.
Solution: 100 to 100000 µM

* * *

# System: hPAD4 enzyme (Homo sapiens (Human), UniProt Q9UM07)
# Sequence (Q9UM07 whole entry): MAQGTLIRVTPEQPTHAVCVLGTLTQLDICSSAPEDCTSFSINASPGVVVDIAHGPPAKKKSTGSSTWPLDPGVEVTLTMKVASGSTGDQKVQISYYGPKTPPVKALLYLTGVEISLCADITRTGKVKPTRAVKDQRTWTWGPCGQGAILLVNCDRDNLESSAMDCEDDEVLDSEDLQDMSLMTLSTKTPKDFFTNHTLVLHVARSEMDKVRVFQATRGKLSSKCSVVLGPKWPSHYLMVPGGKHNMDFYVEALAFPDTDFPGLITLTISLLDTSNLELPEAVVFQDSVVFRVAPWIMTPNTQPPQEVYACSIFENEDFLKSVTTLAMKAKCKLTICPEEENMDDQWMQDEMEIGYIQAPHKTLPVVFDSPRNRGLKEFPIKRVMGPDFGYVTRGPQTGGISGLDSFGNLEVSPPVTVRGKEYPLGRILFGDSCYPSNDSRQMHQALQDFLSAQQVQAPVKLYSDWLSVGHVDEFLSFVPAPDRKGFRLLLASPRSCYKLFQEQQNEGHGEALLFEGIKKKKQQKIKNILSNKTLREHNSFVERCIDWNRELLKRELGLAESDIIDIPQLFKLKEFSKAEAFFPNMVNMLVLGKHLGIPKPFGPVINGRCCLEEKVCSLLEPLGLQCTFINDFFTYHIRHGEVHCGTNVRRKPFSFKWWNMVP
# Assay info: PAD4 RapidFire Mass Spectrometry (RFMS) activity assay, hPAD4
# Format: biochemical
# Conditions: 100 nM hPAD4, 50 μM substrate peptide, 1 mM CaCl2, 65 mins at 37° C.; read-out: hPAD4 RFMS IC50
pIC50: −log10 of the molar value.
The reader will find reported pIC50 values listed item by item below.

# annotated cases, reported pIC50 shown
C/C=C/C(=O)N[C@@H]1CNC[C@H]1NC(=O)c1ccc2c(c1)nc(-c1cc3cccnc3n1CC1CC1)n2C: < 5.00
C=CC(=O)N(C)[C@H]1C[C@@H]2CN(C(=O)c3cc(OC)c4c(c3)nc(-c3cc5cccnc5n3CC3CC3)n4C)[C@H]1[C@@H]2N (single isomer, unassigned): < 5.00
CN(C)C/C=C/C(=O)N[C@H]1CCN(C(=O)c2ccc3c(c2)nc(-c2cc4cccnc4n2CC2CC2)n3C)C[C@H]1N (racemic): < 5.00
C=CC(=O)N[C@@H]1CCCN(C(=O)c2ccc3c(c2)nc(-c2cc4cccnc4n2CC2CC2)n3C)C1: < 5.00
CN(C)C/C=C/C(=O)N[C@@H]1CCCN(C(=O)c2ccc3c(c2)nc(-c2cc4cccnc4n2CC2CC2)n3C)C1: < 5.00
CN(C)C/C=C/C(=O)N[C@@H]1C[C@H](N)CN(C(=O)c2ccc3c(c2)nc(-c2cc4cccnc4n2CC2CC2)n3C)C1 (racemic): < 5.00

Problem: Specify pIC50 for C=CC(=O)O[C@@H]1CNC[C@@H]1NC(=O)c1ccc2c(c1)nc(-c1cc3cccnc3n1CC1CC1)n2C (racemic) and stop.
Solution: < 5.00

Problem: Specify pIC50 for `CN(C)C/C=C/C(=O)NCCN(CCc1cnc[nH]1)C(=O)c1ccc2c(c1)nc(-c1cc3cccnc3n1CC1CC1)n2C` and stop.
Solution: < 5.00

Problem: Specify pIC50 for C=CC(=O)N(C)[C@@H]1C[C@@H]2CN(C(=O)c3cc(OC)c4c(c3)nc(-c3cc5cccnc5n3CC3CC3)n4C)[C@H]1[C@@H]2N (single isomer, unassigned) and stop.
Solution: < 5.00

* * *

The reader will find reported IC50 values listed item by item below.
# System: UniProtKB Q9Z183
# Sequence (Q9Z183 whole entry): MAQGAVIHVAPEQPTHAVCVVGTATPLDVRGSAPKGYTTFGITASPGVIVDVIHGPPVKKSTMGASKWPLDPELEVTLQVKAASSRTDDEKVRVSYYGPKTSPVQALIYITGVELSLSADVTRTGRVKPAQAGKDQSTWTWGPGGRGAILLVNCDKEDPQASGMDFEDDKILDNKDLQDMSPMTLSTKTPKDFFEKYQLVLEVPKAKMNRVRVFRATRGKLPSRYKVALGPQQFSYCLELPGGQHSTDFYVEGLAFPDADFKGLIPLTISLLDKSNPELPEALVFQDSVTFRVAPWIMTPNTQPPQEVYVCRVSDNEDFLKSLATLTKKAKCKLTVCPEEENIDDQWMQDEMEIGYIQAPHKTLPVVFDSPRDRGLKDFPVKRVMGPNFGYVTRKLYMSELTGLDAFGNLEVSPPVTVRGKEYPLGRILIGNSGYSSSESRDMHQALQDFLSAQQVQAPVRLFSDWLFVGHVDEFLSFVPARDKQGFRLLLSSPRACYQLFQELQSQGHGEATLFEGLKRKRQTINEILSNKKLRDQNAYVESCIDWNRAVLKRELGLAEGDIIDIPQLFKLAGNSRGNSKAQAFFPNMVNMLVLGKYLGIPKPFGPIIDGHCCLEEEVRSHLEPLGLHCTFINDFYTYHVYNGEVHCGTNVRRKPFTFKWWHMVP
# Assay info: PAD4 RapidFire Mass Spectrometry (RFMS) activity assay, mPAD4
# Assay type: biochemical
# Conditions: read-out: mPAD4 RFMS IC50

CN(C)C/C=C/C(=O)N[C@H]1CCN(C(=O)c2ccc3c(c2)nc(-c2cc4cccnc4n2CC2CC2)n3C)C[C@H]1N (racemic): > 10 µM

Please find the next compound below.
Problem: Specify IC50 for CN(C)C/C=C/C(=O)N[C@@H]1C[C@H](N)CN(C(=O)c2ccc3c(c2)nc(-c2cc4cccnc4n2CC2CC2)n3C)C1 (racemic) and stop.
Solution: > 10 µM
